# Tested on: ATP phosphoribosyltransferase (HisG)
# protocol description: Measurement of activities of ATP phosphoribosyltransferases (UV 290 nm, cell supernatant)
# Format: biochemical, Corynebacterium glutamicum
# test parameters: 30° C., UV 290 nm, no L-histidine
outcome measure: Activity of ATP phosphoribosyltransferase (HisG) (U/mg)
Note: unit U/mg is implicit; provide only the numeric part.

Problem: What does the data say about its Activity of ATP phosphoribosyltransferase (HisG)? Entry: HisG (G233H/T235Q): ATP phosphoribosyltransferase variant with G233H and T235Q substitutions (protein) MLKIAVPNKGSLSERAMEILAEAGYAGRGDSKSLNVFDEANNVEFFFLRPKDIAIYVAGGQLDLGITGRDLARDSQADVHEVLSLGFGSSTFRYAAPADEEWSIEKLDGKRIATSYPNLVRDDLAARGLSAEVLRLDGAVEVSIKLGVADAIADVVSTGRTLRQQGLAPFGEVLCTSEAVIVGRKDEKVTPEQQILLRRIQGILHAQNFLMLDYNVDRDNLDAATAVTPGLSHPQVSPLARDNWVAVRAMVPRRSANAIMDKLAGLGAEAILASEIRIARI
Solution: 1.381
